# System: EPHB1
# COND: concentration: 1 μM, replicates: in singlicate; n = 1
MEASURE_NAME: %Inh (%)
Report only the number, with the unit % understood.

Record `Cc1cnc(N)c(/C=C/c2cncc(C(=O)NCCc3ccc(Cl)cc3Cl)c2)c1.Cl` / EPHB1, %Inh recorded as 5

Record `CNc1nc(-c2ccc3c(N)n[nH]c3c2)cc(N2C[C@@H](C(=O)NC3CCCCC3)OC[C@H]2C)n1` / EPHB1, %Inh recorded as 7

Record `COc1ccc2cc(-c3nc(-c4ccccc4C(C)C)[nH]c3-c3ccncc3)ccc2c1` / EPHB1, %Inh recorded as 4

Record `Nc1cccc(-c2ccc3c(N)n[nH]c3c2)n1` / EPHB1, %Inh recorded as 9

Record `CNC(=O)c1ccc(C)c(-n2c(C)cc(OCc3ccc(F)cc3F)c(Br)c2=O)c1` / EPHB1, %Inh recorded as 0

Record `CC[C@@H]1CO[C@H](C(=O)Nc2ccccc2)CN1c1cc(-c2ccc3c(N)n[nH]c3c2)nc(NC)n1` / EPHB1, %Inh recorded as 8

Record `Cc1ccc(NC(=O)Nc2ccccc2)cc1-c1ccc(C(=O)Nc2ccncc2)cc1` / EPHB1, %Inh recorded as 11

Record `Cc1ccc(NC(=O)Nc2ccccc2F)cc1-c1ccc(C(=O)Nc2ccncc2)cc1` / EPHB1, %Inh recorded as 27

###

# System: TIE2;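 also: kd values determined as follow-up on hits from a single-replicate KINOMEscan panel screen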
# Construct: gene TEK
MEASURE_NAME: pKd
Notebook: values listed as pKd are -log10 of the concentration (mol/L).

Lab note: `COc1ccc2cc(-c3nc(-c4ccccc4C(C)C)[nH]c3-c3ccncc3)ccc2c1` gave pKd of 6.80

###

I'd appreciate it if you could supply %Inh values for the items below.
# Tested on: INSRR
# COND: concentration: 1 μM, replicates: in singlicate; n = 1
Report only the number, with the unit % understood.

Lab note: `CCn1c(-c2c(N)noc2C)nc2cnccc21` gave %Inh of 0

Lab note: COc1ccc(Nc2nccc(N3CCC(NC(=O)c4cc5ccccc5s4)C3)n2)cc1 (stereo not drawn) gave %Inh of 0

Lab note: `Cc1cccc2c(-c3ccncn3)c(-c3ccc(F)cc3)nn12` gave %Inh of 16

Lab note: `CCc1ccc(-c2ccc3c(c2)-c2n[nH]cc2S(=O)(=O)N3C)cc1` gave %Inh of 0

Lab note: `CC[C@@H]1CO[C@H](C(=O)Nc2ccccc2)CN1c1cc(-c2ccc3c(N)n[nH]c3c2)nc(NC)n1` gave %Inh of 0

Lab note: `CSc1ccc(-c2nc3n(c2-c2ccncc2)CCC3)cc1` gave %Inh of 0

Lab note: `Cc1ccc(-c2nc(Nc3ccncc3)c3ccccc3n2)s1` gave %Inh of 22

Lab note: O=C(Nc1n[nH]c2nc(-c3ccco3)c(Br)cc12)C1CCN(Cc2ccccc2)C1.O=C(O)[C@H](O)[C@@H](O)C(=O)O (stereo not drawn) gave %Inh of 0

Lab note: COc1cccc(CNC(=O)NC2CCN(c3ccnc(Nc4ccc(F)cc4)n3)C2)c1 (stereo not drawn) gave %Inh of 18

###

# Tested on: MAST1
# COND: concentration: 1 μM, replicates: in singlicate; n = 1
Lab note: compare %Inh with 1%, writing met if less and not met if equal or more.

IN: Regarding CC(=O)c1cccc(NC(=O)NC2CCN(c3ccnc(Nc4ccc(F)cc4)n3)C2)c1 (stereo not drawn) , kindly confirm whether its %Inh is beneath 1%.
OUT: not met

IN: Regarding `COc1ccc(Nc2nccc(NCCNC(=O)Nc3cc(C)ccc3C)n2)cc1` , kindly confirm whether its %Inh is beneath 1%.
OUT: met

IN: Regarding `COc1nccc(-c2c(-c3ccc(F)cc3)ncn2CCCN2CCOCC2)n1` , kindly confirm whether its %Inh is beneath 1%.
OUT: not met

IN: Regarding `COc1ccc(CSc2nnc(-c3ccc4c(c3)CCO4)o2)cc1` , kindly confirm whether its %Inh is beneath 1%.
OUT: not met

IN: Regarding `CS(=O)(=O)Cc1ccc(Nc2nccc(-c3c(-c4cccc(NC(=O)C5CCCCC5)c4)nn4ncccc34)n2)cc1` , kindly confirm whether its %Inh is beneath 1%.
OUT: not met

IN: Regarding `Nc1ncnc2occ(-c3ccc4c(c3)CCN4C(=O)Cc3cc(F)ccc3F)c12` , kindly confirm whether its %Inh is beneath 1%.
OUT: met

IN: Regarding `O=C1NC(=O)C(c2ccc(Cl)cc2)=C1Nc1ccc(O)cc1` , kindly confirm whether its %Inh is beneath 1%.
OUT: not met

IN: Regarding `Nc1nccc(-c2c(-c3ccc(F)cc3)ncn2C2CCN(Cc3ccccc3)CC2)n1` , kindly confirm whether its %Inh is beneath 1%.
OUT: not met

IN: Regarding `CNc1nc(-c2ccc3c(N)n[nH]c3c2)cc(N2C[C@@H](C(=O)NC3CCCCC3)OC[C@H]2C)n1` , kindly confirm whether its %Inh is beneath 1%.
OUT: met

IN: Regarding `Cn1cnc2c(N)ncnc21` , kindly confirm whether its %Inh is beneath 1%.
OUT: not met

IN: Regarding `Cc1ccc(NC(=O)Nc2ccc(Cl)c(C(F)(F)F)c2)cc1-c1ccc(C(=O)Nc2ccncc2)cc1` , kindly confirm whether its %Inh is beneath 1%.
OUT: met

IN: Regarding `Cc1ccc(-c2nc(Nc3ccncc3)c3ccccc3n2)s1` , kindly confirm whether its %Inh is beneath 1%.
OUT: met

IN: Regarding `CN1c2ccc(-c3ccc(C(N)=O)cc3)cc2-c2[nH]ncc2S1(=O)=O` , kindly confirm whether its %Inh is beneath 1%.
OUT: met

IN: Regarding `COc1cc2ncnc(Nc3cccc(Br)c3)c2cc1OC.Cl` , kindly confirm whether its %Inh is beneath 1%.
OUT: not met

IN: Regarding `Fc1ccc(-c2nc[nH]c2-c2ccncc2)cc1` , kindly confirm whether its %Inh is beneath 1%.
OUT: met

IN: Regarding `CNc1nc(-c2ccc3c(N)n[nH]c3c2)cc(N2C[C@@H](C(=O)Nc3ccccc3)CC[C@H]2C)n1` , kindly confirm whether its %Inh is beneath 1%.
OUT: met

IN: Regarding `Cc1ccc(NC(=O)Nc2ccccc2F)cc1-c1ccc(C(=O)Nc2ccncc2)cc1` , kindly confirm whether its %Inh is beneath 1%.
OUT: met

###

# Tested on: JAK1(JH1domain-catalytic)
# COND: concentration: 1 μM, replicates: in singlicate; n = 1
MEASURE_NAME: %Inh (%)
Report only the number, with the unit % understood.

Lab note: Cc1cccc2c(-c3ccncn3)c(-c3ccc(F)cc3)nn12 [GW515532] gave %Inh of 5

Lab note: CC(C)c1cc(-c2ccc3c(N)n[nH]c3c2)nc(N)n1 [GSK2250882] gave %Inh of 0

Lab note: Fc1ccc(-c2nn3cccc(F)c3c2-c2ccncc2)cc1 [GW475620] gave %Inh of 10

Lab note: `CC(=O)c1c(C)c2cnc(Nc3ccc(N4CCNCC4)cn3)nc2n(C2CCCC2)c1=O` gave %Inh of 0

Lab note: COc1ccc(Nc2nccc(N3CCC(NC(=O)C(C)c4ccc(Cl)cc4)CC3)n2)cc1 (centres unmarked) [GSK1379812] gave %Inh of 26

Lab note: COc1ccc(Nc2nccc(NCCNC(=O)Nc3cc(C)ccc3C)n2)cc1 [GSK1379899] gave %Inh of 0

Lab note: NS(=O)(=O)c1cccc(N/C=C2\C(=O)Nc3ccc(S(=O)(=O)Cc4c(Cl)cccc4Cl)cc32)c1 [GSK398099] gave %Inh of 11

Lab note: CCn1c(-c2ccccc2)nc2cnccc21 [SB-733416] gave %Inh of 0

Lab note: O=C(Nc1n[nH]c2nc(-c3ccco3)c(Br)cc12)C1CCN(Cc2ccccc2)C1.O=C(O)[C@H](O)[C@@H](O)C(=O)O (centres unmarked) [SB-742034] gave %Inh of 0

Lab note: COC(=O)C(NC(=O)NC1CCN(c2ccnc(Nc3ccc(F)cc3)n2)C1)c1ccccc1 (centres unmarked) [GSK1379712] gave %Inh of 17

Lab note: O=C(Nc1n[nH]c2nc(-c3cccs3)c(Br)cc12)C1CCCC1 [SB-743341] gave %Inh of 0

Lab note: FC(F)(F)c1ccccc1-c1cc(-c2c[nH]nc2-c2ccccn2)ccn1 [GW679396] gave %Inh of 5

Lab note: Cc1nccc(-c2c(-c3ccc(F)cc3)ncn2CCCN2CCOCC2)n1.Cl [SB-282975] gave %Inh of 0

Lab note: Cc1ccc(NC(=O)c2ccc(Cl)cc2)cc1-c1ccc(C(=O)Nc2ccncc2)cc1 [GSK1398467] gave %Inh of 0

Lab note: Cn1cncc1-c1cc2c(Nc3ccc(OCc4ccccc4)cc3)ncnc2cn1 [GW281179] gave %Inh of 14

Lab note: COc1ccc2cc(-c3nc(-c4ccccc4C(C)C)[nH]c3-c3ccncc3)ccc2c1 [SB-660566] gave %Inh of 11

Lab note: O=c1cc(N2CCOCC2)nc2n(Cc3cccc(Cl)c3Cl)c3ccccc3n12 [GSK2299009] gave %Inh of 24

Lab note: Cc1ccccc1Cn1ccn2c(=O)cc(N3CCOCC3)nc12 [GSK2269905] gave %Inh of 0

Lab note: COc1ccc(Nc2nccc(N3CCC(NC(=O)c4cc5ccccc5s4)C3)n2)cc1 (centres unmarked) [GSK1379738] gave %Inh of 15

Lab note: Cl.Cl.Cl.N#Cc1ccc(CCNc2nccc(-c3cccc(CN4CCNCC4)c3)n2)cc1 [GSK2137462] gave %Inh of 3

Lab note: COC(=O)C(Cc1ccccc1)NC(=O)NC1CCN(c2ccnc(Nc3ccc(F)cc3)n2)C1 (centres unmarked) [GSK1379714] gave %Inh of 16

Lab note: CC(=O)c1cccc(NC(=O)NC2CCN(c3ccnc(Nc4ccc(F)cc4)n3)C2)c1 (centres unmarked) [GSK1379710] gave %Inh of 21

Lab note: Nc1nccc(-c2c(-c3ccc(F)cc3)ncn2C2CCN(Cc3ccccc3)CC2)n1 [SB-219980] gave %Inh of 0

Lab note: Cn1cncc1C(=O)NC1CCN(c2ccnc(Nc3ccc(F)cc3)n2)C1 (centres unmarked) [GSK1379717] gave %Inh of 17

Lab note: O=c1cc(N2CCOCC2)nc2n(Cc3ccccc3F)ccn12 [GSK2297428] gave %Inh of 10

Lab note: CNc1cc(-c2ccc3c(N)n[nH]c3c2)nc(N)n1 [GSK2224810] gave %Inh of 12

Lab note: `CNCc1ccc2nc(NC(=O)c3ccc(C(C)(C)C)cc3)cn2c1` gave %Inh of 0

Lab note: Cc1ccc(NC(=O)Nc2ccc(Cl)c(C(F)(F)F)c2)cc1-c1ccc(C(=O)Nc2ccncc2)cc1 [GSK1398470] gave %Inh of 5

Lab note: COc1ccc(Nc2nccc(-c3ccc(NC(=O)c4cc5cc(F)ccc5[nH]4)cc3)n2)cc1 [GSK1229496] gave %Inh of 0

Lab note: `CNC(=O)c1ccc(C)c(-n2c(C)cc(OCc3ccc(F)cc3F)c(Br)c2=O)c1` gave %Inh of 0

Lab note: COC(=O)c1cccc(NC(=O)NC2CCN(c3ccnc(Nc4ccc(OC)cc4)n3)C2)c1 (centres unmarked) [GSK1379746] gave %Inh of 14

Lab note: `CC(=O)c1c(C)c2cnc(Nc3ccn(C)n3)nc2n(C2CCCC2)c1=O` gave %Inh of 0

Lab note: Fc1ccc(-c2nc[nH]c2-c2ccncc2)cc1 [SB-217360] gave %Inh of 0

Lab note: Cc1ccc(-c2nc(Nc3ccncc3)c3ccccc3n2)s1 [GSK189015] gave %Inh of 16

Lab note: CNc1nc(-c2ccc3c(N)n[nH]c3c2)cc(N2C[C@@H](C(=O)NC3CCCCC3)OC[C@H]2C)n1 [GSK2375584] gave %Inh of 11
